Source of measurements: patent US9018395B2

Tested System: wild-type human melanocortin 4 receptor (WT-hMC4R) (Homo sapiens, UniProt P32245)
Construct: cDNA from UMR cDNA resource center
Sequence (P32245 whole entry): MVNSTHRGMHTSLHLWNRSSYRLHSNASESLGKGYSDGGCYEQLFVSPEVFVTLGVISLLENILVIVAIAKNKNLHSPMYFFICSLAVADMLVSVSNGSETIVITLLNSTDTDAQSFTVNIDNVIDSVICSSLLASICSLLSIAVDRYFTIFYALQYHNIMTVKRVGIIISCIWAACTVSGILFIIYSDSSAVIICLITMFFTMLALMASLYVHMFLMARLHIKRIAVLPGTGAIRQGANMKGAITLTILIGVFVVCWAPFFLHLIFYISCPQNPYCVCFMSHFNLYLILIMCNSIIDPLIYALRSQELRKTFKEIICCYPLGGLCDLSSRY
Test Details: Cyclic AMP assay (HTRF), antagonist competition against NDP-α-MSH
Measurement Conditions: HEK293T cells expressing double-tagged WT-hMC4R; cAMP accumulation; 1 hour compound then 4 nM NDP-α-MSH 30 min
pIC50: −log10 of the molar value.
Property: pIC50

# count of solved cases: 3
Compound Structure String | Tested System | pIC50
CC(=O)c1ccc(-c2nn3ccc(C(=O)N(CCC(C)C)CCC(C)C)cc3c2CCCN2CCOCC2)cc1 | wild-type human melanocortin 4 receptor (WT-hMC4R) (Homo sapiens, UniProt P32245) | 5.30 to 6.00
CCCN(CC1CC1)C(=O)c1ccn2nc(-c3ccc(OC)cc3)c(/C=C/CN3CCCCC3)c2c1 | wild-type human melanocortin 4 receptor (WT-hMC4R) (Homo sapiens, UniProt P32245) | 4.82 to 5.30
CCOc1ccc(-c2nn3ccc(C(=O)N(CCC(C)C)CCC(C)C)cc3c2CCCN2CCCCC2)cc1 | wild-type human melanocortin 4 receptor (WT-hMC4R) (Homo sapiens, UniProt P32245) | 6.00 to 6.30

Q: Which pIC50 is reported for this compound? `CCCCN(CCCC)C(=O)c1ccn2nc(-c3cc(OC)cc(OC)c3)c(CCCN3CCCCC3)c2c1`
A: 5.30 to 6.00

Q: Further, for `CCOc1ccc(-c2nn3ccc(C(=O)N(CCC(C)C)CCC(C)C)cc3c2CCCN2CCOCC2)cc1` ?
A: 5.30 to 6.00

Q: Further, for `CCCCN(CCCC)C(=O)c1ccn2nc(-c3ccc(C)cc3)c(/C=C/CN3CCCCC3)c2c1` ?
A: 6.00 to 6.30

Q: Further, for `CCN(CC)CCCc1c(-c2ccc(OC)cc2)nn2ccc(C(=O)N(CCC(C)C)CCC(C)C)nc12` ?
A: 4.82 to 5.30

====

Tested System: wild-type human melanocortin 4 receptor (WT-hMC4R) (Homo sapiens, UniProt P32245)
Construct: cDNA from UMR cDNA resource center
Test Details: Cyclic AMP assay (HTRF), antagonist competition against NDP-α-MSH
Measurement Conditions: HEK293T cells expressing double-tagged WT-hMC4R; cAMP accumulation; 1 hour compound then 4 nM NDP-α-MSH 30 min
Property: IC50

Compound Structure String | IC50
COc1ccc(-c2nn3ccc(C(=O)N(CCC(C)C)CCC(C)C)cc3c2CCCN2CCCOCC2)cc1 | 0.5 to 1 µM
COC(=O)c1cccc(-c2nn3ccc(C(=O)N(CCC(C)C)CCC(C)C)cc3c2CCCN2CCCCC2)c1 | < 0.5 µM
COc1ccc(-c2nn3ccc(C(=O)N(CCC(C)C)CCC(C)C)cc3c2CCN2CCCCC2)cc1 | 5 to 15 µM
CC(C)CCN(CCC(C)C)C(=O)c1ccn2nc(-c3ccc(Br)cc3)c(CCCN3CCCCC3)c2c1 | < 0.5 µM
CC(=O)c1cccc(-c2nn3ccc(C(=O)N(CCC(C)C)CCC(C)C)cc3c2CCCN2CCCCC2)c1 | < 0.5 µM

Q: Which IC50 is reported for this molecule? `CCOc1ccc(-c2nn3ccc(C(=O)N(CCC(C)C)CCC(C)C)cc3c2/C=C/CN2CCC(F)(F)CC2)cc1`
A: 5 to 15 µM

Q: Further, for `CCOC(=O)c1ccc(NC(=O)c2nn3ccc(C(=O)N(CCC(C)C)CCC(C)C)cc3c2CCCN2CCCCC2)cc1` ?
A: 1 to 5 µM
